- target.under.test: Angiotensin II receptor (Rattus norvegicus, UniProt P29089+P25095+P35351)
- protocol.notes: Inhibition of [125I]AII binding to Angiotensin II receptor, type 1 of rat mesenteric arteries
- Type: protein assay
# log10 of IC50 per entry
Annotation: log10 of IC50, nM basis.

These solved cases illustrate the format of a correct answer.
CCCCc1ncc(/C=C(\Cc2cccs2)C(=O)O)n1Cc1ccccc1OC	3.87
CCCCc1ncc(/C=C(\Cc2cccs2)C(=O)O)n1Cc1ccc(OC)c(C)c1	1.82
CCCCc1ncc(/C=C(\Cc2cccs2)C(=O)O)n1Cc1cccc(C(=O)O)c1	0.52
CCCCc1ncc(/C=C(\Cc2cccs2)C(=O)O)n1Cc1ccccc1C(=O)O	3.78
CCCCc1ncc(/C=C(\Cc2cccs2)C(=O)O)n1Cc1ccc(-c2ccccc2C(=O)O)cc1	0.82

Give the value of log10 of IC50 reported for the following: CCCCc1ncc(/C=C(\Cc2cccs2)c2nn[nH]n2)n1Cc1ccccc1Cl
2.49

Given the compound CCCCc1ncc(/C=C(\Cc2cccs2)C(=O)O)n1Cc1cccc(OC)c1[N+](=O)[O-] , write its reported log10 of IC50.
2.11

Find the measured log10 of IC50 of CCCCc1ncc(/C=C(\Cc2cccs2)C(N)=O)n1Cc1ccc(C(=O)O)cc1 and report it.
1.32

Recall and state the measured log10 of IC50 for CC(C)Cc1ncc(/C=C(\Cc2cccs2)C(=O)O)n1Cc1ccc(C(=O)O)cc1 .
2.21

Return log10 of IC50 for the following compound: CCCCc1ncc(/C=C(\Cc2cccs2)c2nn[nH]n2)n1Cc1cccc(Cl)c1Cl
3.11

Every entry's value here was drawn from ChEMBL document CHEMBL1126722.
